Hey, just so you know, these numbers are from PubChem BioAssay AID2060340.

system: 349418-098-R-PDC spheroids, viability, % test/control; experiment: Anticancer human tumor 349418-098-R-PDC patient-derived lung adenocarcinoma cell line growth inhibition [IpAb]; details: second compound 1 µM; first compound 0.01 µM; hits give low values; spheroids with HUVEC and MSC;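 also: spheroids exposed to compounds for 7 days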
Below, each of the molecules is paired with its reported viability, T/C value.
Numbers only here, please. The scale is %.

Recorded results for 2 molecules are shown here.
Molecule	Unit Abbrev	viability, T/C
Cn1ncnc1[C@H]1c2n[nH]c(=O)c3cc(F)cc(c23)N[C@@H]1c1ccc(F)cc1 + CC(C)NCC(C(=O)N1CCN(c2ncnc3c2C(C)CC3O)CC1)c1ccc(Cl)cc1	%	16.7
Cn1ncnc1[C@H]1c2n[nH]c(=O)c3cc(F)cc(c23)N[C@@H]1c1ccc(F)cc1 + CCN1CCN(Cc2ccc(Nc3ncc(F)c(-c4cc(F)c5nc(C)n(C(C)C)c5c4)n3)nc2)CC1	%	13

For the next question, use this molecule.
viability, T/C value, target or system 349418-098-R-PDC spheroids, viability, % test/control, for COc1c(OCCCN2CCOCC2)ccc2c3n(c(=NC(=O)c4cnc(N)nc4)nc12)CCN3 + CC(C)NCC(C(=O)N1CCN(c2ncnc3c2C(C)CC3O)CC1)c1ccc(Cl)cc1 : 9.17
